src = the supplement of paper PMC11780869

Tested on: Bacillus subtilis
experiment-summary: cleaved RNA product abundance (RNA/gDNA barcode ratio) relative to median wild-type variant (ratio to wild type); higher = more accumulation of the downstream cleavage product
conditions-used: experiment (reporter, strain, medium): exp 4a: truncated aprE reporter, strain BJT201 with 2% xylose (RNase J1 expressed); cleavage site: cggR-gapA (positions -7 to +36 mutated)
readout-label: cleaved RNA product abundance
Give bare numbers.

In the examples that follow, each entry is paired with its recorded cleaved RNA product abundance.
[[record]]
input_sequence = "ACAGACGAAGGAGCCGCAAAGAAATTATTAAGGGATGAATAATCCCTCAATATAACTATCTCTCACTTATTTAAA"
measurement = 0.325

[[record]]
input_sequence = "ACAGACGAAGGAGCCGCAAAGAAGTGATTAAGGGATGAATAGTCCCTCAATATAAATATCTCTCACTTATTTAAA"
measurement = 0.274

[[record]]
input_sequence = "ACAGACGAAGGAGCCGCAAAGAAGTTATTATGGGATGAATAATCCTTCAATATAAATATCTCTCACTTATTTAAA"
measurement = 0.382

[[record]]
input_sequence = "ACAGACGAAGGAGCCGCAAAGAAGTAATTAAGGGATGAATAATCCCTCAATATAATTATCTCTCACTTATTTAAA"
measurement = 0.199


Below are some sequences; for each one, tell me its cleaved RNA product abundance.
1. ACAGACGAAGGAGCCGCAAAGAAGTTATTAAGGGGTGAATAATTCCTCAATATAAATATCTCTCACTTATTTAAA
2. ACAGACGAAGGAGCCGCAAAGAAGTTATTTAGGGATGAATAATCCCTTAATATAAATATCTCTCACTTATTTAAA
3. ACAGACGAAGGAGCCGCAAAGAAGTTATTAAGGGCTGAATAACCCCTCAATATAAATATCTCTCACTTATTTAAA
4. ACAGACGAAGGAGCCGCAAAGAAGTTATTAAGGGATGAATAATCACTCACTATAAATATCTCTCACTTATTTAAA
5. ACAGACGAAGGAGCCGCAAAGAAGTTATTAAGGGAAGAATAAGCCCTCAATATAAATATCTCTCACTTATTTAAA
6. ACAGACGAAGGAGCCGCAAAGAAGTTATTATGGGATGAATAATCCCTCAATATAAAAATCTCTCACTTATTTAAA
7. ACAGACGAAGGAGCCGCAAATAACTTATTAAGGGATGAATAATCCCTCAATATAAATATCTCTCACTTATTTAAA
8. ACAGACGAAGGAGCCGCAAAGAAGTTATTAAGGGATCTATAATCCCTCAATATAAATATCTCTCACTTATTTAAA

Solution:
[0.228, 1.39, 0.424, 0.0806, 0.823, 0.391, 0.465, 0.87]

// each listed sequence needs a value for cleaved RNA product abundance
1. ACAGACGAAGGAGCCGCAAAGAAGATATTAAGGTATGAATAATCCCTCAATATAAATATCTCTCACTTATTTAAA
2. ACAGACGAAGGAGCCGCAAAGAAGTGATTAAGGGATGAATAATCCCGCAATATAAATATCTCTCACTTATTTAAA
3. ACAGACGAAGGAGCCGCAAAGACGTTATTAAGGGATGAATAATCCCTCAAGATAAATATCTCTCACTTATTTAAA
4. ACAGACGAAGGAGCCGCAAAGAACTTATTAAGGGATGTATAATCCCTCAATATAAATATCTCTCACTTATTTAAA
5. ACAGACGAAGGAGCCGCAAAGAAGTTATTAAGGGATGAATCATGCCTCAATATAAATATCTCTCACTTATTTAAA
6. ACAGACGAAGGAGCCGCAAAGAAGTTATTAAGGGATTAATAATCCCTCAATATAAATGTCTCTCACTTATTTAAA
7. ACAGACGAAGGAGCCGCAAAGAAGTTATTAAGGGATGAAAAATCCCTCAGTATAAATATCTCTCACTTATTTAAA

Solution:
1: 0.117; 2: 0.124; 3: 0.205; 4: 0.637; 5: 0.251; 6: 0.707; 7: 0.224

Hi team, please reply with cleaved RNA product abundance for each item in this list.
1. ACAGACGAAGGAGCCGCAAAGAAGTTATTAAGGGATGATTAATCCCTCAATATCAATATCTCTCACTTATTTAAA
2. ACAGACGAAGGAGCCGCAAAGATGTTATTAAGGGATGAATAAACCCTCAATATAAATATCTCTCACTTATTTAAA
3. ACAGACGAAGGAGCCGCAAAGACGTTATTAAGCGATGAATAATCCCTCAATATAAATATCTCTCACTTATTTAAA
4. ACAGACGAAGGAGCCGCAAAGAAGTTATTAAGGGATGAATAATTCCTCAATATAATTATCTCTCACTTATTTAAA
5. ACAGACGAAGGAGCCGCAAAGAAGTTATTAAGGGATGAATAAACCCTCAACATAAATATCTCTCACTTATTTAAA
6. ACAGACGAAGGAGCCGCAAAGAAGTTATTAAAGGATGAATAATCCCTCAATATAAATAGCTCTCACTTATTTAAA
7. ACAGACGAAGGAGCCGCAAAGACGTTATTATGGGATGAATAATCCCTCAATATAAATATCTCTCACTTATTTAAA

Solution:
0.0525
0.275
0.155
0.254
0.0675
0.176
0.284
